The measurements presented in this section are drawn from paper PMC12040169.

Assay: in vitro
Details: human, hela cells, % viability
MEASUREMENT_NAME: viability at 28.5 h, 10 µM

The cases that follow already have their viability at 28.5 h, 10 µM on record.
Cc1ccc(OCCCCNCCN)c(Br)c1 [CBK265099G] ... 85.1%
c1ccc(Oc2ccc(Nc3cc(-c4ccc(N5CCOCC5)cc4)ncn3)cc2)cc1 ... 83.3%
COCOc1ccc(-c2ncc(OC)nc2NC(=O)COC)cc1 ... 92.7%
CCC(C)(C)c1nnc(NC(=O)COc2ccc(Cl)cc2Cl)s1 ... 103%
CC(=S)NCC1CC(c2ccc(N3CC[S+]([O-])CC3)c(F)c2)=NO1 (stereo not shown) ... 110%

Given "c1ccc2c(c1)n[n+]1c3ccccc3[n-]n21" , state its recorded viability at 28.5 h, 10 µM.
85.7%

Field request: viability at 28.5 h, 10 µM | item: "Cc1nn(C)c2ncc(C(=O)N(C)Cc3ccc(C(C)(C)C)cc3)cc12"
99.9%

Using the record for "Cc1ccc(-c2nccnc2OCc2ccccc2)cc1C" , report its viability at 28.5 h, 10 µM.
90.8%

Tell me the measured viability at 28.5 h, 10 µM of "O=C(O)CNS(=O)(=O)c1cccc2cccnc12" , please.
85.9%

Item under review: "Cc1cc(NS(=O)(=O)c2ccc3oc(=O)ccc3c2)n(C)n1" . Reported viability at 28.5 h, 10 µM?
99.6%

###

Test system: C. trachomatis L2/434/Bu expressing GFP (CTL2-GFP)
Construct: L2/434/Bu GFP intracellular growth in HeLa cells
Experiment: microbe, parasite or virus in culture
Set-up: C. trachomatis total inclusion area by high-content imaging, normalised to DMSO
Conditions: Chlamydia trachomatis, HeLa, 28.5 h; total inclusion area; read-out: % of control remaining
MEASUREMENT_NAME: activity at 5 µM (%)
Value expressed in %; do not type the unit.

COCCCNS(=O)(=O)c1ccc(-n2ncc(Cl)c(Cl)c2=O)cc1 [CBK305039] ... 2.13

Requested field: activity at 5 µM. Item: O=C(O)c1cn(C2CC2)c2cc(N3CCNCC3)c(F)cc2c1=O [CBK011645]
0.824

Return reported activity at 5 µM; argument: O=[N+]([O-])c1cccc(C(Nc2cccnc2)c2cc(Cl)c3cccnc3c2O)c1 (stereo not shown) [CBK268629]
93.6

###

Overview of reported viability at 28.5 h, 10 µM across a group of molecules:
Test: in vitro
Design: Viability of infected HeLa host cells, resazurin conversion, bulk resorufin fluorescence relative to DMSO
Details: human, hela cells; bulk resorufin, mean of 2
Express your answer in %, writing the number without its unit.

Solved entries:
CC1=C(C)C(=NNC(N)=S)C(C)=C(C)C1=NNC(N)=S [CBK261262] ... 90.6
CCCc1cc(C(=O)N2CCN(c3nccc(OC)n3)CC2)[nH]n1 [CBK304898] ... 89.2
COc1ccc(-c2csc(/C(C#N)=C/Nc3ccc(S(=O)(=O)Nc4nccs4)cc3)n2)cc1 [CBK262374] ... 96.2
CC(NC(C)(C)C)C(O)COc1ccc(Cl)c2c1C1CCC2CC1 (centres unmarked) [CBK017752C] ... 92.2

Param item = CCc1nnc(NS(=O)(=O)c2ccc(N/C=C3\C(=O)N(c4ccc(Cl)cc4)N=C3C)cc2)s1 [CBK262416] ; retrieve measured viability at 28.5 h, 10 µM.
93.3

###

Assay: in vitro
Conditions: human, hela cells, % viability
viability at 28.5 h, 10 µM values for the molecules below.
Express it in %; write the number only.

Some solved cases for reference:
CCOC(=O)N1CCN(S(=O)(=O)c2ccc3oc(=O)ccc3c2)CC1 ... 82.6
CN(Cc1nccs1)C(=O)NC1CCN(Cc2cccc(O)c2)CC1 ... 96.7
COc1ccc(CC(=O)NC(c2nnc3ccccn23)C(C)C)cc1 (centres unmarked) ... 89.4
CC(C)n1ccnc1CNc1cccc(OCC(=O)N2CCCC2)c1 ... 97

Give the measured viability at 28.5 h, 10 µM of CC1=NN(c2ccc(S(=O)(=O)O)cc2)C(=O)/C1=C/C=C/c1c(C)nn(-c2ccc(S(=O)(=O)O)cc2)c1O [CBK278317K] .
94.6

###

Test: in vitro
Conditions: human, hela cells, % viability
MEASUREMENT_NAME: viability at 28.5 h, 10 µM
A complete answer gives the number followed by the unit.

Consider the reported viability at 28.5 h, 10 µM for these compounds:
N/C(=N\OC(=O)c1cc(-c2ccccc2)nc2ccccc12)c1cccnc1 ... 101%
CC(C)(C)C(=O)Nc1cccc(OC(F)(F)C(F)Cl)c1 (centres unmarked) ... 95%
CC(C)(N)CC(=O)N1CCC(Cn2cncn2)(C2CCCCC2)CC1 ... 89.4%
Cc1cccc(CC(=O)N2CCC(c3ncc(C(=O)Nc4ccc(F)cc4)c(C)n3)CC2)c1 ... 101%

Consider the compound shown here: "O=c1ccc2cc(S(=O)(=O)Nc3ccc4[nH]ccc4c3)ccc2o1" What is its recorded viability at 28.5 h, 10 µM?
54.8%

###

Experiment: in vitro
Details: human, hela cells, % viability
MEASUREMENT_NAME: viability at 28.5 h, 10 µM
Answer with the value and then the unit.

Find the recorded viability at 28.5 h, 10 µM belonging to O=C(O)COc1ccc(Br)cc1C(c1c[nH]c2ccccc12)c1c[nH]c2ccccc12 [CBK265720] and report it.
94.6%

Quick one: viability at 28.5 h, 10 µM for O=S(=O)(NCCSc1ccccn1)c1ccc(Br)cc1 [CBK264001] ?
99.3%

What measured viability at 28.5 h, 10 µM goes with CN(C)C(=O)Cn1nc(C(c2ccccc2)c2ccccc2)oc1=O [CBK283747] ?
92.6%

# viability at 28.5 h, 10 µM lookup, item O=C(CSc1nnc2ccc(-c3ccccc3)nn12)Nc1ccc(F)cc1 [CBK287676]
91.5%

Look up viability at 28.5 h, 10 µM for this compound: O=c1c2sc(-c3ccc(F)cc3)cc2ncn1CC1(O)CCCNC1 (stereo not drawn) [CBK306525]
88.4%

Which value of viability at 28.5 h, 10 µM has been reported for Cc1cccc(CC(=O)N2CCCC2c2ccnc3cc(C)nn23)c1 (stereo not drawn) [CBK283472] in the records?
105%

Param item = CS(=O)(=O)N1CC2(CCN(Cc3ccc(Cl)c(Cl)c3)CC2)c2ccccc21 [CBK084043] ; retrieve measured viability at 28.5 h, 10 µM.
102%

Query: viability at 28.5 h, 10 µM; subject: CCCNC(=O)C(C)Sc1nc2ccsc2c(=O)n1CC (stereo not drawn) [CBK296745]
105%

Request the reported viability at 28.5 h, 10 µM associated with O=C(c1cnn2cccnc12)N1CCc2[nH]c3ccccc3c2C1 [CBK281874]
93%

Returns the measured viability at 28.5 h, 10 µM for the input compound. Input: Cn1cncc1CN(CCCn1ccnc1)Cc1ccccc1F [CBK282960]
85%

Please report the recorded viability at 28.5 h, 10 µM for c1coc(-c2nccnc2NCc2cccs2)c1 [CBK037340] .
104%

Param item = Cn1nnnc1Sc1cc(=O)n(C)c(=O)n1C [CBK011072] ; retrieve measured viability at 28.5 h, 10 µM.
114%

Using the record for Cc1ccc(NCC2CCN(Cc3cc(=O)n4ccccc4n3)C2)nc1 (stereo not drawn) [CBK306334] , report its viability at 28.5 h, 10 µM.
80.7%

Quick one: viability at 28.5 h, 10 µM of Cc1ccc(S(=O)(=O)N(CC(=O)O)c2ccc(C(C)C)cc2)cc1 [CBK287116] ?
85.3%

Param item = O=C(C1CCCC1)N1C[C@@H]2CCCCN(CC3CC3)[C@@H]2C1 [CBK285493] ; retrieve measured viability at 28.5 h, 10 µM.
104%

What does the data say about its viability at 28.5 h, 10 µM? Entry: O=C1[C@@H]2CCCN2C(=O)c2ccccc2N1CCN1CCCC1 [CBK282857]
96.3%

Entry c1ccc(CNc2nnc(-c3ccccc3)s2)cc1 [CBK074928] has what viability at 28.5 h, 10 µM?
87.7%

Item under review: O=c1oc2c(CN3CCN(CCO)CC3)c(O)ccc2cc1-c1nc(-c2ccc(Br)cc2)cs1 [CBK264949] . Reported viability at 28.5 h, 10 µM?
103%

Please give the measured viability at 28.5 h, 10 µM for this compound: Cc1ccc(-c2nnc(N3CCN(S(=O)(=O)c4ccc(Cl)cc4)CC3)c3ccccc23)cc1 [CBK266759]
96.1%

###

// viability at 28.5 h, 10 µM lookup, one value per entry
Assay: in vitro
Conditions: human, hela cells, % viability
Answer as a quantity: numeral, then unit.

CCC(CN1CCN(C)CC1)NC(=O)C1(c2ccc(F)cc2)CC1 (stereo not drawn) ... 104%
Cc1cccc(OCC(=O)NCCCc2ccccc2)c1C ... 99.9%
Cc1ccc2c(c1)C(NC(=O)N(C)C1CCS(=O)(=O)CC1)CC(C)(C)O2 (stereo not drawn) ... 108%
CS(=O)(=O)CCS(=O)(=O)N1CCOCC1c1cccc(F)c1 (stereo not drawn) ... 84.2%
COc1ccc(CNc2nccs2)c(O)c1 ... 86.2%

Entry under review: O=C(C(Cc1ccccc1)N1C(=O)C2CCCCC2C1=O)N1CCN(Cc2ccc3c(c2)OCO3)CC1 (stereo not drawn) . Reported viability at 28.5 h, 10 µM?
102%

Quick check: viability at 28.5 h, 10 µM of "O=C(CN1C(=O)N2CCCN=C2c2ccccc21)N1CCCCCC1" ?
96.4%
